biological target: Metabotropic glutamate receptor 8 (Rattus norvegicus) (UniProt P70579); test: mGluR8 Gi/Go-coupled signaling modulation – cell-based, rat, thallium flux, HTS, primary screen (AID 488969); settings: HEK293 rat mGluR8, GIRK (G protein-gated inwardly rectifying potassium channel) thallium flux, FluoZin2; at 10 µM; stronger effect = higher value; submaximal glutamate (EC20) added with thallium
Sequence (P70579 whole entry, looked up): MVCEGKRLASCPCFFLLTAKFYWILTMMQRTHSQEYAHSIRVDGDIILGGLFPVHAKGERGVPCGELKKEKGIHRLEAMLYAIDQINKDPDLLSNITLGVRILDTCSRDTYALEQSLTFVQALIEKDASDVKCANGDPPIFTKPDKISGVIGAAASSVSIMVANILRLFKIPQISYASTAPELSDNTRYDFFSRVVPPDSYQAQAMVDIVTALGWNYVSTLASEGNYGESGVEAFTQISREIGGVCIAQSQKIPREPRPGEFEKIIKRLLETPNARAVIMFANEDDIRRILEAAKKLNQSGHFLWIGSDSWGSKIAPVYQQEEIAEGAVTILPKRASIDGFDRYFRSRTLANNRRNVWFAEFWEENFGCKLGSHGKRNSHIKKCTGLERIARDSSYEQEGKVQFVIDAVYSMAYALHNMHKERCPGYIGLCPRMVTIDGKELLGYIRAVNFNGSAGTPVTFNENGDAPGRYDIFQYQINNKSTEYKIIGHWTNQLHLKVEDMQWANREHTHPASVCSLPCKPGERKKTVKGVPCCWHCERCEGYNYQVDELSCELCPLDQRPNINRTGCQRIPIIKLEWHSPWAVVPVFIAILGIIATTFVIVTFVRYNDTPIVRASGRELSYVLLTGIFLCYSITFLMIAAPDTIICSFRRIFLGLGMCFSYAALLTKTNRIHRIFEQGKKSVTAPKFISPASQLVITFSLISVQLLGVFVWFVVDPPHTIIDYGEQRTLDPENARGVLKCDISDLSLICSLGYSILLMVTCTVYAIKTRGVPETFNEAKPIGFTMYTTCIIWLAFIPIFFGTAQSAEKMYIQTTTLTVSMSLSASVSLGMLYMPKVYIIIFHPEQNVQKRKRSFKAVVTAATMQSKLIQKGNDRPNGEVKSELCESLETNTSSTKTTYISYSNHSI
Whole data set: some 110,000 compounds, median “z-score” near -0.1, cut for the highest 2% near 2. This is one part of a sample in which the highest values are shown more often than they occur.
Give criterion met when the value for z-score is at least 0.5. Give criterion not met when it is less.

// query Is z-score at least 0.5? Consider CCN(CC)C(=S)SCC(=O)Nc1nc(=O)c2ccccc2s1
// result criterion met

// query Threshold query (z-score >= 0.5) on CCc1c(C)n([O-])c2c([n+]1=O)CCC2
// result criterion not met

// query Does the compound Cc1c(C)[n+](=O)c2c(n1[O-])CCC2 have recorded z-score that is 0.5 or more?
// result criterion met

// query Please tell me: is the compound CNC(=O)c1[nH]cnc1C(=O)Nc1ccccc1C at or over 0.5 in terms of z-score?
// result criterion met

// query Entry COc1ccc(NC(=O)c2nc[nH]c2C(=O)Nc2ccccc2C)cc1 : is its z-score no less than 0.5?
// result criterion not met

// query Hello, I need to know if Cc1nccn1CC(O)COc1ccccc1 (stereo not given) has measured z-score not below 0.5. Thanks!
// result criterion not met

// query Could you tell me if the measured z-score of O=C(Nc1nc(=O)c2ccccc2s1)c1ccc(Cl)cc1 reaches 0.5 or more?
// result criterion met

// query Dear colleague, could you confirm whether CCOC(=O)C1CCCN(C(=O)c2cc(=O)c3ccccc3o2)C1 (stereo not given) has z-score at or above 0.5?
// result criterion met

// query I'd appreciate it if you could say whether O=C(NNc1nc2ccccc2s1)c1ccc(F)cc1 has z-score at least equal to 0.5.
// result criterion not met

// query Decide: z-score of O=C(Cc1nc(=O)c2ccccc2s1)Nc1ccccc1 >= 0.5?
// result criterion not met

// query Does the reported z-score for O=C(Cc1ccccc1)Nc1nc2ccccc2s1 fall at or above the 0.5 mark?
// result criterion met

// query In plain terms: is recorded z-score at least 0.5 for Cc1cccc(S(=O)(=O)NC(Cc2c[nH]c3ccccc23)C(=O)O)c1 (stereo not given) ?
// result criterion met

// query z-score >= 0.5 for COc1ccccc1OCCCCCc1c(C)n[nH]c1C ?
// result criterion not met

// query # check: z-score of COc1ccc(OC)c(C2C(C(=O)O)c3ccccc3C(=O)N2C)c1 (stereo not given) is greater than or equal to 0.5
// result criterion not met

// query In plain terms: is recorded z-score at least 0.5 for COc1cccc(OC)c1OCCCCCc1c(C)n[nH]c1C ?
// result criterion not met
